experimental system: DRB1*09:01 (Homo sapiens, UniProt P01903+P01911, A100R/A103E/D57H/D86V/F55Y/F60I/F76Y/I96F/K127E/L162R/M171V/P40D/Q125H/Q99R/R33Q/R42F/S133A/S66N/T210M/V115G/W38K/Y107V/Y59G/Y89S)
test protocol: HLA class II peptide binding, inhibition of radiolabeled peptide binding to purified MHC
condition description: Other DR, competition with radiolabeled peptide, two-day incubation, three or more independent experiments
Ends that are not written are not given here.
property name: IC50 (nM)
Write the answer as a number in nM, unit excluded.

Record VVLLVATEGRVRVNSAYQDK [Aggrecan 84–103 WT] , field IC50: 730

Record LQYMRADQAAGGLR [Collagen II 1236–1249 WT] , field IC50: 315

Record NQDFTNRINKLKNS [Fibrinogen 78–91 WT] , field IC50: 11100

Record SAVRLRSSVPGVR [Vimentin 66–78 WT] , field IC50: 1410

====

experimental system: HLA-DRB1*01:01 (Homo sapiens, UniProt P01903+P01911, A100R/D57E/F55L/F60I/F76Y/I96L/L162R/M171V/P40L/Q125E/R42F/V115G/Y59C)
Construct: EBV transformed homozygous cell lines were used as sources of MHC molecules; endogenous in cells; host or cells: EBV transformed homozygous cell lines
test protocol: HLA class II peptide binding, inhibition of radiolabeled peptide binding to purified MHC
condition description: citrullinated 15-mer peptide (X = citrulline); purified HLA-DRB1*01:01; read-out: DRB1*01:01 binding capacity, Cit peptide (IC50 nM)
Square brackets hold non-standard residues; d marks the D form. Peptide text beside a SMILES is read from it. Cit = NC(=O)NCCC[C@H](N)C(=O)O
Could you please report measured IC50 for the items listed next?
Write the answer as a number in nM, unit excluded.

Record N=C(N)NCCC[C@H](NC(=O)[C@H](CCC(=O)O)NC(=O)CNC(=O)[C@H](CCCNC(N)=O)NC(=O)[C@@H]1CCCN1C(=O)CN)C(=O)NCC(=O)N[C@@H](Cc1ccccc1)C(=O)N1CCC[C@H]1C(=O)NCC(=O)N[C@@H](CCC(=O)O)C(=O)N[C@@H](CCCNC(=N)N)C(=O)NCC(=O)N[C@@H](CO)C(=O)N1CCC[C@H]1C(=O)O [GPXGERGFPGERGSP] (H-GP[Cit]GERGFPGERGSP-OH) , field IC50: 23400

Record CSCC[C@H](NC(=O)[C@@H]1CCCN1C(=O)CNC(=O)[C@@H]1CCCN1C(=O)[C@H](CO)NC(=O)CNC(=O)[C@H](CC(N)=O)NC(=O)[C@@H](N)CCC(=O)O)C(=O)NCC(=O)N1CCC[C@H]1C(=O)N[C@@H](CCCNC(N)=O)C(=O)NCC(=O)N[C@@H](CC(C)C)C(=O)N1CCC[C@H]1C(=O)NCC(=O)O [ENGSPGPMGPXGLPG] (H-ENGSPGPMGP[Cit]GLPG-OH) , field IC50: 31400

====

experimental system: HLA-DRB1*04:01 (Homo sapiens, UniProt P01903+P01911, A100K/A169T/F76Y/I96L/K127E/L162R/M171V/N62H/P40V/Q125Y/R42H/S133A/S149N/S66Y/V115G/V209L/W38E)
Construct: EBV transformed homozygous cell lines were used as sources of MHC molecules; endogenous in cells; host or cells: EBV transformed homozygous cell lines
test protocol: HLA class II peptide binding, inhibition of radiolabeled peptide binding to purified MHC
condition description: wild-type (unmodified Arg) 15-mer peptide; purified HLA-DRB1*04:01; read-out: DRB1*04:01 binding capacity, WT peptide (IC50 nM)
Ends that are not written are not given here.
property name: IC50

Record LVAAVLRCQGQDVQE [Collagen 16 WT] , field IC50: 4730 nM

Record LPLVDTHSKRTLLIK [Vimentin 431 WT] , field IC50: 5090 nM

Record ENGSPGPMGPRGLPG [Collagen 316 WT] , field IC50: > 40000 nM

Record FAVEAANYQDTIGRL [Vimentin 351 WT] , field IC50: 564 nM

Record TNESLERQMREMEEN [Vimentin 336 WT] , field IC50: > 40000 nM

Record GPSGKDGPKGARGDS [Collagen 921 WT] , field IC50: > 40000 nM

Record PPGPQGPAGEQGPRG [Collagen 121 WT] , field IC50: > 40000 nM
